Tested on: Alternaria solani
experiment-notes: Test B: tomato early blight, preventive spray on tomato seedlings, visual disease rating
setup-conditions: tomato early blight; 100 = 100% disease control, 0 = no disease control relative to the controls
readout-kind: Test B rating (disease control) (%)
Answer in %, number only, no unit symbol.

// worked examples, Test B rating (disease control) included
>>> print(df.to_string())
                    structure_smiles_string  display_unit  value
0  Cc1nn(C)c(Nc2ccc(C#N)cc2F)c1-c1c(F)cc(F)cc1F             %     99
1  COc1cc(F)c(Nc2c(-c3c(F)cc(OC)cc3F)c(C)nn2C)c(F)c1             %    100
2  Cc1nn(C)c(Nc2ccc(C#N)cc2F)c1-c1c(F)cccc1F             %     94

Bench note, Alternaria solani: `Cc1nn(C)c(Nc2ccc(Cl)cc2Cl)c1-c1c(F)cccc1F` , Test B rating (disease control) reads 99

Bench note, Alternaria solani: `Cc1nn(C)c(Nc2ccc(Cl)cc2Cl)c1-c1ccc(F)cc1Cl` , Test B rating (disease control) reads 95

* * *

Tested on: Blumeria graminis f. sp. tritici
experiment-notes: Test I: wheat powdery mildew, preventive spray on wheat seedlings, visual disease rating
setup-conditions: wheat powdery mildew; 100 = 100% disease control, 0 = no disease control relative to the controls
List of Test I rating (disease control) values.
Answer in %, number only, no unit symbol.

// worked examples, Test I rating (disease control) included
                    structure_smiles_string                     readout_kind  value
0  COc1cc(F)c(Nc2c(-c3ccccc3F)c(C)nn2C)c(F)c1  Test I rating (disease control)     99
1  Cc1nn(C)c(Nc2c(Cl)cc(Cl)cc2Cl)c1-c1ccc(F)cc1F  Test I rating (disease control)     99
2  COc1ccc(Oc2c(-c3ccc(F)cc3Cl)c(C)nn2C)c(F)c1  Test I rating (disease control)     99

Moving on to another compound below.
Bench note, Blumeria graminis f. sp. tritici: `Cc1nn(C)c(Nc2c(F)cc(C#N)cc2F)c1-c1c(F)cccc1F` , Test I rating (disease control) reads 99

* * *

Tested on: Septoria nodorum
experiment-notes: Test E: Septoria glume blotch, preventive spray on wheat seedlings, visual disease rating
setup-conditions: Septoria glume blotch on wheat, preventive spray; 100 = 100% disease control; rating without asterisk
readout-kind: Test E rating (% disease control) (%)
Answer in %, number only, no unit symbol.

// worked examples, Test E rating (% disease control) included
In [3]: df
Out[3]:
                                   molecule                       readout_kind  value
0  Cc1nn(C)c(Nc2c(F)cc(Cl)cc2I)c1-c1ccc(F)cc1F  Test E rating (% disease control)     99
1  Cc1nn(C)c(Nc2c(F)cc(Br)cc2Br)c1-c1ccc(F)cc1Cl  Test E rating (% disease control)    100
2  COc1ccc(-c2c(C)nn(C)c2Nc2c(F)cc(I)cc2F)c(Cl)c1  Test E rating (% disease control)     73
3  Cc1nn(C)c(Nc2c(F)cc(I)cc2F)c1-c1ccc(F)cc1F  Test E rating (% disease control)     60
4  CCOc1ccc(-c2c(C)nn(C)c2Nc2c(F)cc(Cl)cc2F)c(F)c1  Test E rating (% disease control)     90
5  Cc1nn(C)c(Nc2c(F)cc(Cl)cc2Br)c1-c1ccc(F)cc1Cl  Test E rating (% disease control)    100
6  CCOc1cc(F)c(-c2c(C)nn(C)c2Nc2c(F)cc(F)cc2Cl)c(F)c1  Test E rating (% disease control)     95
7  Cc1nn(C)c(Nc2c(F)cc(Cl)cc2Cl)c1-c1ccc(Cl)cc1F  Test E rating (% disease control)      0

Test E rating (% disease control) reading for `COc1ccc(-c2c(C)nn(C)c2Nc2c(F)cc(Cl)cc2F)c(F)c1` : 60

Test E rating (% disease control) reading for `COc1ccc(-c2c(C)nn(C)c2Nc2c(F)cc(F)cc2Br)c(Cl)c1` : 97
